target: OsWRKY34 (Oryza sativa, UniProt Q0JBA9 1-250); assay: protein-binding microarray (RPBM); PBS, 2% BSA, 51.3 ng/ul salmon testes DNA, 50 uM zinc acetate, 200 nM TF, 25 C, 1 h; high values mean tight binding; conditions: protein: recombinant; tags: N-terminal polyhistidine and DsRed monomer fusion (pET32a); label: CyDye5-dUTP incorporated in the synthesized complementary strand; 3' TTTTT single-stranded linker to array surface; dsDNA, one strand shown
Sequence (Q0JBA9 entry or part of it): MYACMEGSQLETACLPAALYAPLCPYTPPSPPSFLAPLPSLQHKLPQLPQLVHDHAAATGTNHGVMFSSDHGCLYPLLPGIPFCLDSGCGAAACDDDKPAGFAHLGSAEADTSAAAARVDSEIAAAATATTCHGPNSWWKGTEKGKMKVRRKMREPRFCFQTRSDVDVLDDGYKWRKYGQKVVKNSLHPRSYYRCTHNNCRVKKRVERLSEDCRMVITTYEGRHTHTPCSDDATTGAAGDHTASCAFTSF
The full ranking holds about 68,000 sequences; the median of “fluorescence intensity (a.u.)” is about 9,100, and the highest 2% start at about 16,000. The sample holds the highest values, similar sequences and a random draw of the others, so the mix is not that of the screen.
result_type: binding signal

Form entry - test system: OsWRKY34 (Oryza sativa, UniProt Q0JBA9 1-250); read-out: binding signal; sequence: `TACCAACATTGTAGCAACAGATTCATCTCTCTTTTTTTTTCGGAGTCACCTAGTGCAG`
18100 fluorescence intensity (a.u.)

Form entry - test system: OsWRKY34 (Oryza sativa, UniProt Q0JBA9 1-250); read-out: binding signal; sequence: `TATCATTATGTCCGAACGGTATACCTTCTTGTATCATTTCCGGAGTCACCTAGTGCAG`
11200 fluorescence intensity (a.u.)

Form entry - test system: OsWRKY34 (Oryza sativa, UniProt Q0JBA9 1-250); read-out: binding signal; sequence: `CTCGTCGTCTCCTCCGCTCCTTGCGCCATCTCGCGGCTGACGGAGTCACCTAGTGCAG`
11500 fluorescence intensity (a.u.)

Form entry - test system: OsWRKY34 (Oryza sativa, UniProt Q0JBA9 1-250); read-out: binding signal; sequence: `TATATCACATTTAATTATTTTTCCCATGTTCTTGTTTTAACGGAGTCACCTAGTGCAG`
9480 fluorescence intensity (a.u.)

Form entry - test system: OsWRKY34 (Oryza sativa, UniProt Q0JBA9 1-250); read-out: binding signal; sequence: `TGGCATTTTTTTTTTCTTGTGAAAAACCGACGAGAGGAAGCGGAGTCACCTAGTGCAG`
8190 fluorescence intensity (a.u.)

Form entry - test system: OsWRKY34 (Oryza sativa, UniProt Q0JBA9 1-250); read-out: binding signal; sequence: `CTCTTTTTTTTTCTTCCACTACGCTCCAAAACTTCTCTCCCGGAGTCACCTAGTGCAG`
8790 fluorescence intensity (a.u.)

Form entry - test system: OsWRKY34 (Oryza sativa, UniProt Q0JBA9 1-250); read-out: binding signal; sequence: `GTGACCCAACATTCAGATTCATCTTTTTTTTTCACCTTCTCGGAGTCACCTAGTGCAG`
11300 fluorescence intensity (a.u.)

Form entry - test system: OsWRKY34 (Oryza sativa, UniProt Q0JBA9 1-250); read-out: binding signal; sequence: `TCTCAATTGCACCTCATTTAATCCTCATTTTTCATCTTTTCGGAGTCACCTAGTGCAG`
11800 fluorescence intensity (a.u.)

Form entry - test system: OsWRKY34 (Oryza sativa, UniProt Q0JBA9 1-250); read-out: binding signal; sequence: `CTGCCACGTCACATTTGCCGCCCTCTGGGAGGGCGATTTTCGGAGTCACCTAGTGCAG`
8580 fluorescence intensity (a.u.)
